Source listed as ChEMBL document CHEMBL1155371.

Measured Activity of individual entries
- experimental_system: Neuropilin-1 (Homo sapiens, UniProt O14786)
- Sequence (O14786 whole entry): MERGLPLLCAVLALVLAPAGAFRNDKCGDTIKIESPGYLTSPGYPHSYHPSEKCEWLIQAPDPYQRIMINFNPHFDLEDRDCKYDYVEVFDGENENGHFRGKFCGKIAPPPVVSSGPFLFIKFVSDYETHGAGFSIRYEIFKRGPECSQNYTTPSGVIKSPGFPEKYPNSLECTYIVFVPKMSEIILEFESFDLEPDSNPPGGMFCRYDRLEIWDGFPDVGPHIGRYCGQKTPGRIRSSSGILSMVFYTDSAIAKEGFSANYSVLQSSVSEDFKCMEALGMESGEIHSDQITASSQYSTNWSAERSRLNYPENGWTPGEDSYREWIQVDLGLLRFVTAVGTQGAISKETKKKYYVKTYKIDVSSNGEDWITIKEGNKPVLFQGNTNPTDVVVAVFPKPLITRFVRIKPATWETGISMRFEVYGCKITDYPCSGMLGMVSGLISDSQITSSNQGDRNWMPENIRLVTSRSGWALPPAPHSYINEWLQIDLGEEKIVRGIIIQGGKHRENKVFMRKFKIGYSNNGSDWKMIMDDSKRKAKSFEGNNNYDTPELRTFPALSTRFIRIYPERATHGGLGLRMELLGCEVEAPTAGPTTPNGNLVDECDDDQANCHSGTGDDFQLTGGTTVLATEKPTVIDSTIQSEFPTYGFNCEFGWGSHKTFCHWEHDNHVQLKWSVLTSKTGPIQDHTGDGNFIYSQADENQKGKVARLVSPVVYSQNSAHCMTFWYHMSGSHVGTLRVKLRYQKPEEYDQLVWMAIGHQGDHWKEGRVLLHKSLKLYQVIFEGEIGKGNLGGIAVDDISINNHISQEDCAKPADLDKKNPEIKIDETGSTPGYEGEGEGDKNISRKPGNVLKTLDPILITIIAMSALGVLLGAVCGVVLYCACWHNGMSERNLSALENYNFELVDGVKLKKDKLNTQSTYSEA
- method_description: Displacement of [125I]VEGF-A from human NRP1 expressed in pig aortic endothelial cells at 100 uM
- Assay type: cell-based
- stated_conditions: Endothelial cell
measured_attribute: Activity (%)

* N=C(N)NCCCC[C@@H](CC(=O)O)NC(=O)c1sccc1NS(=O)(=O)c1ccc2nsnc2c1 | 11
* COC(=O)[C@H](CCCNC(=N)N)NC(=O)c1sccc1NS(=O)(=O)c1ccc([N+](=O)[O-])cc1 | 21
* NCCCC[C@H](NC(=O)c1sccc1NS(=O)(=O)c1ccc([N+](=O)[O-])cc1)C(=O)O | 20
* N=C(N)NCCC[C@@H](NC(=O)c1sccc1NS(=O)(=O)c1ccc(N)cc1)C(=O)O | 36
* CN(c1ccsc1C(=O)N[C@@H](CCCNC(=N)N)C(=O)O)S(=O)(=O)c1ccc(N)cc1 | 25
* N=C(N)NCCC[C@H](NC(=O)C1CCN(Cc2nc(O)nc(NCCCCN)n2)CC1)C(=O)O | 32
* N=C(NCCC[C@H](NC(=O)c1sccc1NS(=O)(=O)c1ccc([N+](=O)[O-])cc1)C(=O)O)N[N+](=O)[O-] | 3
* N=C(N)NCCC[C@H](NC(=O)c1cccs1)C(=O)O | 28
* N=C(N)NCCC[C@H](NC(=O)c1sccc1NS(=O)(=O)c1ccc([N+](=O)[O-])cc1)C(=O)O (stereo in doubt; 38) | 75
